# Lookup of reported SPOT intensity keyed by entry
Target: T1, Sla1-3, P32790
T1 sequence (P32790 344-424, looked up): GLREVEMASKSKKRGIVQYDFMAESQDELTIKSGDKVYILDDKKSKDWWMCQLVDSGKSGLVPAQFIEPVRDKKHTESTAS
Experiment: SPOT array
Settings: median of control spots 5475
The answer should be written as a number, with no unit following it.

// known answers, use as guide
| BINDER | SPOT intensity |
| --- | --- |
| KRNRLKILLPFLEQS | 49 |
| FYHRPAPKPPVTKKV | 2040 |
| VAPPPLPNRQLPNLD | 0 |

Could you now consider this next binder?
Recorded result, APERAVPILPPRNNV , SPOT intensity: 0

Reference for the values: paper PMC2756588
